Quick list: pIC50 per entry.
TESTED TARGET: PLK3 PBD (Homo sapiens, UniProt Q9H4B4)
Construct: A similar assay format was developed for the PLK3 PBD
Sequence (Q9H4B4 335-646 limits assumed): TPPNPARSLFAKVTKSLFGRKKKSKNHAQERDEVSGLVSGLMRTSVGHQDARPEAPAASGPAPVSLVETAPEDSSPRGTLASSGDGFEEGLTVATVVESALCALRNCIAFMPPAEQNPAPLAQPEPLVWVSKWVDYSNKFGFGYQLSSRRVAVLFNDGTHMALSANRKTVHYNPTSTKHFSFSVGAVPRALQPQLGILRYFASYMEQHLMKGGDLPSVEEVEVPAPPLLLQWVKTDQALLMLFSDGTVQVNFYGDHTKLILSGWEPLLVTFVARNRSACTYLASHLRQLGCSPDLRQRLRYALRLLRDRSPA
ASSAY NOTES: Fluorescence polarization competitive binding assay, PLK3 PBD
CONDITION SET: PLK3 PBD FP IC50, competition with fluorescent tracer peptide
pIC50: −log10 of the molar value. Square brackets hold non-standard residues; d marks the D form. Peptide text beside a SMILES is read from it. * marks the point of attachment. Benzoyl(4-octyl) = CCCCCCCCc1ccc(C(=O)*)cc1; pT = C[C@@H](OP(=O)(O)O)[C@H](N)C(=O)O
MEASURED METRIC: pIC50

>>> observed_result("CC(C)C[C@H](NC(=O)CNC(=O)[C@H](CC(N)=O)NC(=O)[C@@H]1CCCN1C(=O)[C@@H](NC(=O)[C@H](CO)NC(=O)[C@@H](NC(=O)[C@H](C)NC(=O)[C@H](CC(C)C)NC(=O)[C@@H]1CCCN1C(=O)CN)[C@@H](C)O)[C@@H](C)OP(=O)(O)O)C(=O)O [SEQ ID NO: 8, GPLATS[pT]PNGL] (H-GPLATS[pT]PNGL-OH; N-terminus and C-terminus assumed)")
5.20
>>> observed_result("CC(C)C[C@H](NC(=O)[C@@H]1CCCN1C(=O)CN)C(=O)N[C@@H](C)C(=O)N[C@H](C(=O)N[C@@H](CO)C(=O)N[C@H](C(=O)N1CCC[C@H]1C(=O)N[C@@H](CCCCN)C(=O)N[C@@H](CC(N)=O)C(=O)NCC(=O)O)[C@@H](C)OP(=O)(O)O)[C@@H](C)O [SEQ ID NO: 7, GPLATS[pT]PKNG, reference compound] (H-GPLATS[pT]PKNG-OH; N-terminus and C-terminus assumed)")
5.66
>>> observed_result("CCCCCCCCc1ccc(C(=O)N[C@@H](CO)C(=O)N[C@H](C(=O)N2CCC[C@H]2C(=O)N[C@@H](CC(N)=O)C(=O)NCC(=O)N[C@@H](CC(C)C)C(=O)O)[C@@H](C)OP(=O)(O)O)cc1 [Compound 13] ({Benzoyl(4-octyl)}-S[pT]PNGL-OH; C-terminus assumed)")
3.83
